B1: glmS ribozyme (parent)
chain: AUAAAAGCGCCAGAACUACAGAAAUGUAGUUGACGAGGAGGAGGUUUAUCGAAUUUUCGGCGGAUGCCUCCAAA

Variants of: B1
Assay: KM; higher = weaker cofactor use; RNA array
Details: with glucosamine-6-phosphate
Measured parameter: log10(KM) (log10 of the value in µM)

sequence_data="AUAAAAGCACCAGAACUACAGAAAUGUAGUUCACGAGGAGGAGGUUUAUCGAAUUUUCGGCGGAUGACUCCAAA [G9A G32C C67A]" measured_parameter=log10(KM) readout_number=2.48
sequence_data="AUAAAAGCGCUAGAACUACAGAAAUGUAGAUGACGAGGAGGAGGUUUAUCGAAUUUUCGGCGGAUGCCUCCAAA [C11U U30A]" measured_parameter=log10(KM) readout_number=2.97
sequence_data="AUAAAAGCGCCAGAGCUACAGAAAUGUAGUUGACGAGGAGGAGGUUUAUCGAAUUUUCGGCGGAUGCCUGCAAA [A15G C70G]" measured_parameter=log10(KM) readout_number=2.26
sequence_data="AUAAAAGCGCCAGAACUACAGAAAUGUAGUUGACCAGGAGGAGGUUUAUCGAAUUUUCGGCGGAGGCCUCCAAA [G35C U65G]" measured_parameter=log10(KM) readout_number=3.18
sequence_data="AUAAAAGCGCCAGAACUACAGAAAUGUAGUUGACGAGGAGGAGGUUUAUCGAAUUGUCGGCGGAUUCCUCCAAA [U56G G66U]" measured_parameter=log10(KM) readout_number=3.25
sequence_data="AUAAAAGCGCCAGAACUACAGAAAUGUAGCUGACGAGGCGGAGGUUUAUCGAAUUUUCGGCGGAUGCCUCCAAA [U30C A39C]" measured_parameter=log10(KM) readout_number=3.62
sequence_data="AUAAAAGCGCCAGAACUACAGAAAUGUAUAUGACGAGGAGGAGGUUUAUCGAAUUUUCGGCGGAUGCCUCCAAA [G29U U30A]" measured_parameter=log10(KM) readout_number=3.28
sequence_data="AUAAAAGCGCCUGAACUACAGAAAUGUAGUUGACGAGGAGGAGGUUUAUCGAAUUUUCGGCGGAUGCCUCUAAA [A12U C71U]" measured_parameter=log10(KM) readout_number=3.25
sequence_data="AUAAAAGCGCCAGAACUACAGAAAUGUAGUUGACGAGGAGGAGGUUUAGCGAAUAUUCGGCGGAUGCCUCCAAA [U49G U55A]" measured_parameter=log10(KM) readout_number=3.44
sequence_data="AUAAAAGCGCCUGAACUACAGAAAUGUAGUUGACGAGGAGGAGGUUCAUCGAAUUUUCGGCGGAUGCCUCCAAA [A12U U47C]" measured_parameter=log10(KM) readout_number=3.25
sequence_data="AUAAAAGCGCCAGAACUACAGAAAUGUAGUUGACGAGGAGGAUGUUUAUCGAGUUUUCGGCGGAUGCCUCCAAA [G43U A53G]" measured_parameter=log10(KM) readout_number=2.90
